Assay: chemical genetic growth profiling, strain panel (AID 1159580);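 note: tested at 20 µM; growth read once vehicle control cultures reached saturation at 30 °C; 1 = growth at the plate median or of vehicle wells; lower values mean less growth of the strain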
Condition set: S. cerevisiae deletion strains, growth OD, locus YPR111W, strain DBF20, stronger effect = lower value
The whole screen tested about 5,500 compounds, of which about 2,000 (36%) were called active. Roughly 18% stayed inconclusive and do not appear here. The list shows a part of the results.
Outcome measure: normalized growth
Give the figure by itself; no unit, no explanation.

> print(dat)
                         smiles.repr    outcome.measure  value.reported
1  FC(F)(F)c1cccc(NC(=S)Nc2ccccc2)c1  normalized growth           0.969

Lookup: // lookup normalized growth for O=[N+]([O-])c1ccccc1CS(=O)(=O)c1nc2ccccc2s1
Found: 0.952

Lookup: // lookup normalized growth for COC(=O)C1=C(C)NC(C)=C(C(=O)OC)C1c1ccc(Cl)cc1Cl
Found: 0.975

Lookup: // lookup normalized growth for O=C(NCc1ccncc1)c1ccc(-n2cccn2)cc1
Found: 0.968

Lookup: // lookup normalized growth for O=C(NCCSCc1ccco1)Nc1cc(Cl)cc(Cl)c1
Found: 0.957

Lookup: // lookup normalized growth for FC(F)(F)c1cccc(NNC(=S)Nc2ccccc2)c1
Found: 1

Lookup: // lookup normalized growth for O=C(Nc1ccc(N2CCOCC2)cc1)c1ccc(-n2cccn2)cc1
Found: 0.968

----------
Entries and their normalized growth
Assay: chemical genetic growth profiling, strain panel (AID 1159580);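 note: tested at 20 µM; growth read once vehicle control cultures reached saturation at 30 °C; 1 = growth at the plate median or of vehicle wells; lower values mean less growth of the strain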
Condition set: S. cerevisiae deletion strains, growth OD, locus YPR167C, strain met16, stronger effect = lower value
The whole screen tested about 5,500 compounds, of which about 2,000 (36%) were called active. About 18% were inconclusive and are not listed. The list shows a part of the results.
Give the figure by itself; no unit, no explanation.

> print(dat)
              compound  value.reported
1  CS(=O)(=O)CCCCN=C=S           0.904

Lookup: // lookup normalized growth for CCCC1O[C@@H]2CC3C4CCC5=CC(=O)C=CC5(C)C4[C@@H](O)CC3(C)[C@]2(C(=O)CO)O1 (stereo partly specified)
Found: 1.02

Lookup: // lookup normalized growth for CC1(C)CC2C1(O)CCC1(C)C=CC(O)C21CO (stereo unspecified)
Found: 0.994

Lookup: // lookup normalized growth for Cc1ccc(/C(=C\CN2CCCC2)c2ccccn2)cc1
Found: 1

Lookup: // lookup normalized growth for OC[C@@H]1CCCN2CCCC[C@H]12
Found: 1.01

Lookup: // lookup normalized growth for Cc1ccsc1/C=C/C1=NCCCN1C
Found: 0.97

----------
Assay: chemical genetic growth profiling, strain panel (AID 1159580);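 note: tested at 20 µM; growth read once vehicle control cultures reached saturation at 30 °C; 1 = growth at the plate median or of vehicle wells; lower values mean less growth of the strain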
Condition set: S. cerevisiae deletion strains, growth OD, locus YOR070C, strain gyp1, stronger effect = lower value
Out of some 5,500 compounds screened, about 2,000 (36%) were called active. Roughly 18% stayed inconclusive and do not appear here. Some of the results follow.
Outcome measure: normalized growth
Give the figure by itself; no unit, no explanation.

Worked examples follow.
> print(dat)
                                   molecule  value.reported
1                  Nc1ccc(C(=O)NCC(=O)O)cc1            1.01
2              COc1cccc(/C=C/C(=O)O)c1C(C)C           0.999
3  C=CC(C)(O)CC/C=C(\C)CCC=C(C)C (stereo not drawn)           0.981
4  C=CC(C1=CC(=O)C(OC)=CC1=O)c1ccccc1 (stereo not drawn)            0.79
5  CN/C(=C\[N+](=O)[O-])NCCSCc1ccc(CN(C)C)o1           0.989

Lookup: // lookup normalized growth for C=CC(C1=CC(=O)C(OC)=CC1=O)c1ccc(OC)cc1 (stereo not drawn)
Found: 0.817

Lookup: // lookup normalized growth for O=C(O)c1ccccc1Nc1cccc(C(F)(F)F)c1
Found: 0.848

Lookup: // lookup normalized growth for CN[C@H](CC(=O)O)C(=O)O
Found: 1.01

Lookup: // lookup normalized growth for Nc1ncnc2c1ncn2[C@@H]1O[C@H](CO)[C@@H](O)[C@H]1O
Found: 0.987

Lookup: // lookup normalized growth for C=CC(C1=CC(=O)C(OC)=CC1=O)c1ccc(O)cc1 (stereo not drawn)
Found: 0.982

Lookup: // lookup normalized growth for N[C@@H](Cc1ccc(O)c(O)c1)C(=O)O
Found: 0.998

Lookup: // lookup normalized growth for CC(C)=CCC[C@](C)(O)C1CC=C(C)CC1 (stereo partly drawn)
Found: 1.02

Lookup: // lookup normalized growth for CC(=O)NCCCS(=O)(=O)O
Found: 1.01

Data provenance is PubChem BioAssay AID1159580.
